tested on: U-87 MG; test: Antiproliferative activity against human U87MG cells assessed as reduction in cell viability after 72 hrs by SRB assay; assay type: functional, cell-based, U-87MG ATCC; settings: Homo sapiens, U-87 MG, 72 h; read-out: IC50
property_name: IC50
Answer with the value and then the unit.

Example entries begin here.
                                   compound  property_name  reading
0  COc1cccc2c1C(=O)c1c(O)c3c(c(O)c1C2=O)C[C@@](O)(C(=O)CO)C[C@@H]3O[C@H]1C[C@H](N)[C@H](O)[C@H](C)O1 [DOXORUBICIN]           IC50   1.6 µM
1  C[C@@H]1C[C@@H]([C@H](O)CC2CC(=O)NC(=O)C2)C(=O)[C@@H](C)[C@@H]1O           IC50   3.8 µM

Please examine the following record next.
Entry under test: C[C@H]1C[C@@](C)(O)C[C@@H]([C@H](O)CC2CC(=O)NC(=O)C2)C1=O . Its IC50 was 0.22 µM
